# studySystem: Leucotriene D4 Receptor (Cavia porcellus, UniProt Q2NNR5)
# Construct: guinea pig pulmomembranous protein; from tissue; host or cells: guinea pig lung membranes
# Sequence (Q2NNR5 1-340): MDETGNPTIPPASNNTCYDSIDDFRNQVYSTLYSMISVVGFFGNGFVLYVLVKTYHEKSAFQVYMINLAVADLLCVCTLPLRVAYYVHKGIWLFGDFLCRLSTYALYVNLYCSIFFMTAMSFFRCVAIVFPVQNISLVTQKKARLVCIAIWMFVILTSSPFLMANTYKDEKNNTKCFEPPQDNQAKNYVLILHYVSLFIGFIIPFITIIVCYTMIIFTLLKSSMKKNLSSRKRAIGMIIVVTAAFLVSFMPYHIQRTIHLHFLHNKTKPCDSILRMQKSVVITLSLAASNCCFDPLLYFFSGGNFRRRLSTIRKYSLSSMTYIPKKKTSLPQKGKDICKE
# methodNotes: Leucotriene D4 Receptor Binding Inhibition Test
# Set-up: species or system guinea pig
# setupConditions: read-out: LTD receptor, dissociation constant KD
measurementLabel: Kd (nM)

Solved cases below.
{"chemicalStructure": "O=C(O)c1cccc2c(=O)cc(-c3cccc(/C=C/c4ccc5ccccc5n4)c3)oc12", "studySystem": "Leucotriene D4 Receptor (Cavia porcellus, UniProt Q2NNR5)", "Kd [nM]": 17.3}
{"chemicalStructure": "O=C(O)c1cccc2c(=O)c(O)c(-c3ccc(OCc4ccc5ccccc5n4)cc3)oc12", "studySystem": "Leucotriene D4 Receptor (Cavia porcellus, UniProt Q2NNR5)", "Kd [nM]": 805}
{"chemicalStructure": "O=C(O)c1cccc2c(=O)c(OCCN3C(=O)c4ccccc4C3=O)c(-c3ccc(OCc4ccc5ccccc5n4)cc3)oc12", "studySystem": "Leucotriene D4 Receptor (Cavia porcellus, UniProt Q2NNR5)", "Kd [nM]": 9160}
{"chemicalStructure": "CCOC(=O)c1cc(Br)cc2c(=O)cc(-c3cccc(OCc4ccc5ccc(Cl)cc5n4)c3)oc12", "studySystem": "Leucotriene D4 Receptor (Cavia porcellus, UniProt Q2NNR5)", "Kd [nM]": 11.1}

1: O=c1cc(-c2cccc(/C=C/c3ccc4ccccc4n3)c2)oc2c(-c3nn[nH]n3)cc(Cl)cc12
2: CCOC(=O)c1cc(Br)cc2c(=O)cc(-c3cccc(OCc4nc5ccccc5s4)c3)oc12
3: CCOC(=O)c1cc(Br)cc2c(=O)cc(-c3cccc(OCc4nc5ccccc5n4C)c3)oc12
Ascending by Kd, please: list the compounds accordingly. // rank by listing labels in the order requested 1, 2, 3
(1: 11 nM, 2: 79.4 nM, 3: 210 nM)
